target: human PD-1 (Jurkat-PD-1 cells) / PE-labeled human PD-L1-Ig (Homo sapiens, UniProt Q15116); construct: expressed in transfected cells; host or cells: Jurkat cell line over-expressing human PD-1; experiment: Jurkat-PD-1 Cell Binding High-Content Screening Assay (CBA); Jurkat hPD1-PDL1 assay; settings: Jurkat cell line over-expressing human PD-1; PE-labeled PD-L1-Ig 20 nM final; compound incubated 2 hours at 37° C.; read-out: Jurkat HPD1-PDL1 IC50
Sequence (Q15116 25-288): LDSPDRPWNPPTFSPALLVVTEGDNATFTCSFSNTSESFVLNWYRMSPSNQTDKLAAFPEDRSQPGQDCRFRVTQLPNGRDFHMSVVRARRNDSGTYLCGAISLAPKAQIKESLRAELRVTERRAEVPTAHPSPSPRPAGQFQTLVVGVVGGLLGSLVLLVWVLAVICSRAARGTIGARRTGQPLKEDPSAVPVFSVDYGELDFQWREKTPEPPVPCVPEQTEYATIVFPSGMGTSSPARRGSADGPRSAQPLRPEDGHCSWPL
Positions of bridges follow the written chain, without caps; N, C: chain ends. Non-standard residues stand in square brackets, D forms with d. Residues, ends and D or L forms follow the SMILES beside them. Bip = N[C@@H](Cc1ccc(-c2ccccc2)cc1)C(=O)O; Phe(3-Cl) = N[C@@H](Cc1cccc(Cl)c1)C(=O)O; Ala(cPr) = N[C@@H](CC1CC1)C(=O)O; NMeF = CN[C@@H](Cc1ccccc1)C(=O)O; NMeA = CN[C@@H](C)C(=O)O; dNMeA = CN[C@H](C)C(=O)O; Dab = NCC[C@H](N)C(=O)O; Sar = CNCC(=O)O
Reported pIC50 is given for each of the following compounds.
In simple prose, pIC50 is minus the logarithm base ten of a concentration in moles per litre.

In the examples that follow, each entry is paired with its recorded pIC50.
>>> datavalue("CC(C)C[C@@H]1NC(=O)[C@H](Cc2c[nH]c3ccccc23)NC(=O)[C@H](CC(=O)O)NC(=O)[C@H](Cc2ccc(O)cc2)NC(=O)[C@H](Cc2ccccc2)NC(=O)CSC[C@@H](C(=O)NCC(N)=O)NC(=O)[C@H](CO)NC(=O)[C@H](C(C)C)NC(=O)[C@H](CC(C)C)NC(=O)[C@H](CO)NC(=O)CN(C)C(=O)[C@H](C)N(C)C(=O)[C@H](C(C)C)NC(=O)[C@H](Cc2ccc(-c3ccccc3)cc2)NC1=O [Example 1225] ({CH2CO}-FYDWL[Bip]V[NMeA][Sar]SLVSCG-NH2; thioether N-14)")
6.02
>>> datavalue("COc1ccc(C[C@@H]2NC(=O)[C@H](Cc3ccccc3)NC(=O)CSC[C@@H](C(=O)N[C@@H](C)C(N)=O)NC(=O)[C@H](CO)NC(=O)[C@H](C(C)C)NC(=O)[C@H](CC(C)C)NC(=O)[C@H](CC(N)=O)NC(=O)CN(C)C(=O)[C@H](C)N(C)C(=O)[C@H](C(C)C)NC(=O)[C@H](Cc3ccc(-c4ccccc4)cc3)NC(=O)[C@H](CC(C)C)NC(=O)[C@H](Cc3c[nH]c4ccccc34)NC(=O)[C@H](CC(=O)O)NC2=O)cc1 [Example 1139] ({CH2CO}-FY(Me)DWL[Bip]V[NMeA][Sar]NLVSCA-NH2; thioether N-14)")
6.23
>>> datavalue("CC(C)C[C@@H]1NC(=O)[C@H](CCCNC(=N)N)NC(=O)[C@H](Cc2ccccc2)N(C)C(=O)[C@H](C)N(C)C(=O)[C@H](CCCNC(=N)N)NC(=O)[C@H](Cc2ccc(-c3ccccc3)cc2)NC(=O)[C@H](C(C)C)NC(=O)[C@H](Cc2cccc(Cl)c2)NC(=O)[C@H](CC(=O)O)NC(=O)[C@H](Cc2ccc(O)cc2)NC(=O)[C@H](Cc2ccccc2)NC(=O)CSC[C@@H](C(=O)NCC(N)=O)NC(=O)[C@H](CO)NC(=O)[C@H](C(C)C)NC1=O [Example 1241] ({CH2CO}-FYD[Phe(3-Cl)]V[Bip]R[NMeA][NMeF]RLVSCG-NH2; thioether N-14)")
6.57
>>> datavalue("CC(C)C[C@@H]1NC(=O)[C@H](CC(N)=O)NC(=O)CN(C)C(=O)[C@H](C)N(C)C(=O)[C@H](C(C)C)NC(=O)[C@H](Cc2ccc(-c3ccccc3)cc2)NC(=O)[C@H](CC2CC2)NC(=O)[C@H](Cc2c[nH]c3ccccc23)NC(=O)[C@H](CC(=O)O)NC(=O)[C@H](Cc2ccc(O)cc2)NC(=O)[C@H](Cc2ccccc2)NC(=O)CSC[C@@H](C(=O)N[C@@H](C)C(N)=O)NC(=O)[C@H](CO)NC(=O)[C@H](C(C)C)NC1=O [Example 1155] ({CH2CO}-FYDW[Ala(cPr)][Bip]V[NMeA][Sar]NLVSCA-NH2; thioether N-14)")
6.09
>>> datavalue("CC(C)C[C@@H]1NC(=O)[C@H](C)NC(=O)CN(C)C(=O)[C@H](C)N(C)C(=O)[C@H](C(C)C)NC(=O)[C@H](Cc2ccc(-c3ccccc3)cc2)NC(=O)[C@H](CC(C)C)NC(=O)[C@H](Cc2c[nH]c3ccccc23)NC(=O)[C@H](CC(=O)O)NC(=O)[C@H](Cc2ccc(O)cc2)NC(=O)[C@H](Cc2ccccc2)NC(=O)CSC[C@@H](C(=O)N[C@@H](C)C(N)=O)NC(=O)[C@H](CO)NC(=O)[C@H](C(C)C)NC1=O [Example 1158] ({CH2CO}-FYDWL[Bip]V[NMeA][Sar]ALVSCA-NH2; thioether N-14)")
6.08
>>> datavalue("CC(C)C[C@@H]1NC(=O)[C@H](Cc2c[nH]c3ccccc23)NC(=O)[C@H](CC(=O)O)NC(=O)[C@H](Cc2ccc(O)cc2)NC(=O)[C@H](Cc2ccccc2)NC(=O)CSC[C@@H](C(=O)NCC(N)=O)NC(=O)[C@H](CO)NC(=O)[C@H](C(C)C)NC(=O)[C@H](CC(C)C)NC(=O)[C@H](CC(N)=O)NC(=O)[C@@H](C)N(C)C(=O)[C@H](C)N(C)C(=O)[C@H](C(C)C)NC(=O)[C@H](Cc2ccc(-c3ccccc3)cc2)NC1=O [Example 1082] ({CH2CO}-FYDWL[Bip]V[NMeA][dNMeA]NLVSCG-NH2; thioether N-14)")
6.64
>>> datavalue("COc1ccc(C[C@@H]2NC(=O)CSC[C@@H](C(=O)NCC(N)=O)NC(=O)[C@H](CO)NC(=O)[C@H](C(C)C)NC(=O)[C@H](CC(C)C)NC(=O)[C@H](CCCNC(=N)N)NC(=O)[C@H](Cc3ccccc3)N(C)C(=O)[C@H](C)N(C)C(=O)[C@H](CCCNC(=N)N)NC(=O)[C@H](Cc3ccc(-c4ccccc4)cc3)NC(=O)[C@H](C(C)C)NC(=O)[C@H](Cc3c[nH]c4ccccc34)NC(=O)[C@H](CC(=O)O)NC(=O)[C@H](Cc3ccc(O)cc3)NC2=O)cc1 [Example 1247] ({CH2CO}-Y(Me)YDWV[Bip]R[NMeA][NMeF]RLVSCG-NH2; thioether N-14)")
6.64

Please look at the following compound next.
IN: State the recorded pIC50 for this entry: CC(C)C[C@@H]1NC(=O)[C@H](CCCNC(=N)N)NC(=O)[C@H](Cc2ccccc2)N(C)C(=O)[C@H](CCN)NC(=O)[C@H](CCCNC(=N)N)NC(=O)[C@H](Cc2ccc(-c3ccccc3)cc2)NC(=O)[C@H](C(C)C)NC(=O)[C@H](Cc2c[nH]c3ccccc23)NC(=O)[C@H](CC(=O)O)NC(=O)[C@H](Cc2ccc(O)cc2)NC(=O)[C@H](Cc2ccccc2)NC(=O)CSC[C@@H](C(=O)NCC(N)=O)NC(=O)[C@H](CO)NC(=O)[C@H](C(C)C)NC1=O [Example 1255] ({CH2CO}-FYDWV[Bip]R[Dab][NMeF]RLVSCG-NH2; thioether N-14)
OUT: 6.37

These data points were gathered from patent US20240360178A1.
